Reported inhibition at 25 µM values follow for various compounds
measured.on: LasB elastase activity of dialysed supernatant from P. aeruginosa PAO1 (Pseudomonas aeruginosa, UniProt P14756)
Construct: Culture supernatants are recovered by centrifugation and filtrated through a 0.22 μM filter; endogenous in cells; host or cells: P. aeruginosa strain PAO1, culture supernatant, filtered and dialysed
Sequence (P14756 198-498): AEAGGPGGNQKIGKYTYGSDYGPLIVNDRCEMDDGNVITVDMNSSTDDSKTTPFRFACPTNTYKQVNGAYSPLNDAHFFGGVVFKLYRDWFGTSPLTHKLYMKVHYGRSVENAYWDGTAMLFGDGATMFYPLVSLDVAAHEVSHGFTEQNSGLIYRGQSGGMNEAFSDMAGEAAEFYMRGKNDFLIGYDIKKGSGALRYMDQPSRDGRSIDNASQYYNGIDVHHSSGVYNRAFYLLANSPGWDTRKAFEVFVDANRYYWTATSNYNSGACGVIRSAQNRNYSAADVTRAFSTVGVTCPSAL
assay.remarks: Elastin Congo-Red assay to determine % inhibition (dialysed PAO1 supernatant)
Type: biochemical
measurement.parameters: read-out: Elastin hydrolysis % inhibition @ 25 μM inhibitor concentration

# compound, inhibition at 25 µM
data = [
    ("COc1cc2sc(CNC(=O)C3(CC(=O)O)Cc4cc(F)c(F)cc4C3)nc2cc1OCCN1CCOCC1 [Example 10]", "> 80%"),
    ("NC(=O)c1cccc2sc(CNC(=O)C3(CC(=O)O)Cc4ccccc4C3)nc12 [Example 1]", "10 to 60%"),
    ("COc1cc2sc(CNC(=O)C3(CC(=O)[O-])Cc4ccccc4C3)nc2cc1C(=O)N1CCOC(C[N+](C)(C)C)C1 (stereo not drawn) [Example 41]", "60 to 80%"),
]

* * *

measured.on: purified LasB protein from P. aeruginosa (Pseudomonas aeruginosa)
assay.remarks: Fluorometric assay to determine Ki (purified LasB, Abz-Ala-Gly-Leu-Ala-p-Nitro-Benzyl-Amide substrate)
Protocol: Experiments were therefore conducted (1) to measure the potency of inhibition of compounds of the invention against purified Pseudomonas aeruginosa LasB enzyme and also experiments were conducted (2) to measure the ability of compounds of the invention to inhibit LasB-catalysed elastin degradation. The first assay uses a commercial fluorescent synthetic peptide and purified LasB enzyme. […]
pKi: −log10 of the molar value.
measure: pKi

# input.smiles, measure, assay.value
rows = [
    ("COc1cc2sc(CNC(=O)C3(CC(=O)[O-])Cc4cc(F)c(F)cc4C3)nc2cc1OCCC[N+](C)(C)CCO", "pKi", "> 7.30"),
    ("CS(=O)(=O)c1cccc2sc(CNC(=O)C3(CC(=O)O)Cc4ccccc4C3)nc12", "pKi", "5.00 to 6.70"),
    ("COc1cc2sc(CNC(=O)C3(CC(=O)[O-])Cc4cc(F)c(F)cc4C3)nc2cc1OCCC[N+](C)(CCO)CCO", "pKi", "> 7.30"),
    ("CN(C)CCNC(=O)c1ccc2nc(CNC(=O)C3(CC(=O)O)Cc4ccccc4C3)sc2c1", "pKi", "5.00 to 6.70"),
    ("COc1cc2sc(CNC(=O)C3(CC(=O)[O-])Cc4cc(F)c(F)cc4C3)nc2cc1C(=O)N1CC[N+](C)(C)CC1", "pKi", "6.70 to 7.30"),
    ("COc1cc2sc(CNC(=O)C3(CC(=O)[O-])Cc4ccccc4C3)nc2cc1OCCC[N+](C)(C)C", "pKi", "> 7.30"),
    ("O=C(O)CC1(C(=O)NCc2nc3c(C(=O)N4CCCC4)cccc3s2)Cc2ccccc2C1", "pKi", "5.00 to 6.70"),
]

* * *

measured.on: purified LasB protein from P. aeruginosa (Pseudomonas aeruginosa, UniProt P14756)
assay.remarks: Fluorometric assay to determine Ki (purified LasB, Abz-Ala-Gly-Leu-Ala-p-Nitro-Benzyl-Amide substrate)
measure: Ki

# input.smiles, measured.on, measure, assay.value
records = [
    ("COc1cc2sc(CNC(=O)C3(CC(=O)[O-])Cc4ccccc4C3)nc2cc1C(=O)N1CCC([N+](C)(C)C)CC1", "purified LasB protein from P. aeruginosa (Pseudomonas aeruginosa, UniProt P14756)", "Ki", "0.2 to 10 µM"),
    ("O=C(O)CC1(C(=O)NCc2nc3c(S(=O)(=O)N4CCNCC4)cccc3s2)Cc2ccccc2C1", "purified LasB protein from P. aeruginosa (Pseudomonas aeruginosa, UniProt P14756)", "Ki", "0.2 to 10 µM"),
    ("COc1cc2sc(CNC(=O)C3(CC(=O)[O-])Cc4cc(F)c(F)cc4C3)nc2cc1OCCOCC[N+](C)(C)C", "purified LasB protein from P. aeruginosa (Pseudomonas aeruginosa, UniProt P14756)", "Ki", "< 0.05 µM"),
    ("COc1cc2sc(CNC(=O)C3(CC(=O)[O-])Cc4cc(F)c(F)cc4C3)nc2cc1OCCC[N+]1(C)CCOCC1", "purified LasB protein from P. aeruginosa (Pseudomonas aeruginosa, UniProt P14756)", "Ki", "0.05 to 0.2 µM"),
    ("COc1cc2sc(CNC(=O)C3(CC(=O)O)Cc4ccccc4C3)nc2cc1C(=O)N1CCN(C)CC1", "purified LasB protein from P. aeruginosa (Pseudomonas aeruginosa, UniProt P14756)", "Ki", "< 0.05 µM"),
    ("COc1cc2sc(CNC(=O)C3(CC(=O)O)Cc4cc(F)c(F)cc4C3)nc2cc1C(=O)N1CCN(C)CC1", "purified LasB protein from P. aeruginosa (Pseudomonas aeruginosa, UniProt P14756)", "Ki", "< 0.05 µM"),
    ("N#Cc1ccc2sc(CNC(=O)C3(CC(=O)O)Cc4ccccc4C3)nc2c1", "purified LasB protein from P. aeruginosa (Pseudomonas aeruginosa, UniProt P14756)", "Ki", "0.05 to 0.2 µM"),
]

* * *

Ki listing for selected compounds.
measured.on: purified LasB protein from P. aeruginosa (Pseudomonas aeruginosa)
assay.remarks: Fluorometric assay to determine Ki (purified LasB, Abz-Ala-Gly-Leu-Ala-p-Nitro-Benzyl-Amide substrate)

# input.smiles, Ki
rows = [
    ("CN1CCN(C(=O)COc2ccc3sc(CNC(=O)C4(CC(=O)O)Cc5ccccc5C4)nc3c2)CC1", "200 to 10000 nM"),
    ("O=C(O)CC1(C(=O)NCc2nc3ccc(OCCCO)cc3s2)Cc2ccccc2C1", "50 to 100 nM"),
    ("CN1CCN(C(=O)c2ccc3nc(CNC(=O)C4(CC(=O)O)Cc5ccccc5C4)sc3c2)CC1", "200 to 10000 nM"),
    ("N#Cc1ccc2nc(CNC(=O)C3(CC(=O)O)Cc4ccccc4C3)sc2c1", "50 to 200 nM"),
    ("COc1cc2sc(CNC(=O)C3(CC(=O)[O-])Cc4ccccc4C3)nc2cc1OCCC[N+]1(C)CCOCC1", "< 50 nM"),
    ("COc1cc2sc(CNC(=O)C3(CC(=O)[O-])Cc4ccccc4C3)nc2cc1C(=O)N1CC([N+](C)(C)C)C1", "200 to 10000 nM"),
    ("COc1cc2sc(CNC(=O)C3(CC(=O)[O-])Cc4ccccc4C3)nc2cc1S(=O)(=O)N1CCC([N+](C)(C)C)CC1", "50 to 200 nM"),
    ("COc1cc2sc(CNC(=O)C3(CC(=O)O)Cc4ccccc4C3)nc2cc1S(=O)(=O)N1CCN(C)CC1", "50 to 200 nM"),
]

* * *

measured.on: purified LasB protein from P. aeruginosa (Pseudomonas aeruginosa)
assay.remarks: Fluorometric assay to determine Ki (purified LasB, Abz-Ala-Gly-Leu-Ala-p-Nitro-Benzyl-Amide substrate)
Protocol: Experiments were therefore conducted (1) to measure the potency of inhibition of compounds of the invention against purified Pseudomonas aeruginosa LasB enzyme and also experiments were conducted (2) to measure the ability of compounds of the invention to inhibit LasB-catalysed elastin degradation. The first assay uses a commercial fluorescent synthetic peptide and purified LasB enzyme. […]
pKi: −log10 of the molar value.

# compound, pKi
measured = [
    ("COc1cc2sc(CNC(=O)C3(CC(=O)[O-])Cc4cc(F)c(F)cc4C3)nc2cc1OCCC[N+]1(C)CCCC1", "> 7.30"),
    ("NC1CCN(S(=O)(=O)c2cccc3sc(CNC(=O)C4(CC(=O)O)Cc5ccccc5C4)nc23)C1 (stereo not shown)", "6.70 to 7.30"),
    ("COc1cc2sc(CNC(=O)C3(CC(=O)O)Cc4ccccc4C3)nc2cc1C(=O)N1CCC(N(C)C)CC1", "6.70 to 7.30"),
    ("CC[N+](C)(CC)CCCOc1cc2nc(CNC(=O)C3(CC(=O)[O-])Cc4ccccc4C3)sc2cc1OC", "> 7.30"),
]

* * *

# Lookup of reported Ki keyed by entry
measured.on: purified LasB protein from P. aeruginosa (Pseudomonas aeruginosa)
Construct: purchased Merck or Charles River Laboratories
assay.remarks: Fluorometric assay to determine Ki (purified LasB, Abz-Ala-Gly-Leu-Ala-p-Nitro-Benzyl-Amide substrate)
Assay type: biochemical

# input.smiles, Ki
measured = [
    ("CN(C)CCNC(=O)c1ccc2sc(CNC(=O)C3(CC(=O)O)Cc4ccccc4C3)nc2c1", "200 to 10000 nM"),
    ("COc1cc2sc(CNC(=O)C3(CC(=O)[O-])Cc4ccccc4C3)nc2cc1OCCOCC[N+](C)(C)C", "50 to 100 nM"),
    ("COc1cc2sc(CNC(=O)C3(CC(=O)[O-])Cc4cc(F)c(F)cc4C3)nc2cc1OCC[N+]1(C)CCOCC1", "50 to 200 nM"),
    ("COc1cc2sc(CNC(=O)C3(CC(=O)O)Cc4cc(F)c(F)cc4C3)nc2cc1C(=O)N1CC(N(C)C)C1", "< 50 nM"),
    ("CN1CCN(C(=O)c2ccc3sc(CNC(=O)C4(CC(=O)O)Cc5ccccc5C4)nc3c2)CC1", "50 to 200 nM"),
    ("COc1cc2sc(CNC(=O)C3(CC(=O)O)Cc4ccccc4C3)nc2cc1S(=O)(=O)N1CCC(N(C)C)CC1", "50 to 200 nM"),
    ("COc1cc2sc(CNC(=O)C3(CC(=O)[O-])Cc4ccccc4C3)nc2cc1OCC1CC[N+](C)(C)CC1", "50 to 200 nM"),
    ("NS(=O)(=O)c1cccc2sc(CNC(=O)C3(CC(=O)O)Cc4ccccc4C3)nc12", "200 to 10000 nM"),
    ("COc1cc2sc(CNC(=O)C3(CC(=O)O)Cc4ccccc4C3)nc2cc1OCCN1CCOCC1", "< 50 nM"),
]
